The measurements presented in this section are drawn from patent US5681826A.

System: α-amylase
test_description: Hydrolysis by α-amylase derived from pig pancreas
Format: in vitro ADME
particulars: one unit, pH 6.9, 37°C., 18 hours
measurement_label: Saccharide composition of hydrolysate by α-amylase: G1 (glucose)

>>> experimental_value("OC[C@H]1O[C@H](O[C@H]2O[C@H](CO)[C@@H](O[C@H]3O[C@H](CO)[C@@H](O[C@H]4O[C@H](CO)[C@@H](O[C@H]5O[C@H](CO)[C@@H](O[C@H]6O[C@H](CO)[C@@H](O)[C@H](O)[C@H]6O)[C@H](O)[C@H]5O)[C@H](O)[C@H]4O)[C@H](O)[C@H]3O)[C@H](O)[C@H]2O)[C@H](O)[C@@H](O)[C@@H]1O [P IV, α-maltotetraosyltrehalose]")
1.6
>>> experimental_value("OC[C@H]1O[C@H](O[C@H]2O[C@H](CO)[C@@H](O[C@H]3O[C@H](CO)[C@@H](O[C@H]4O[C@H](CO)[C@@H](O)[C@H](O)[C@H]4O)[C@H](O)[C@H]3O)[C@H](O)[C@H]2O)[C@H](O)[C@@H](O)[C@@H]1O [P II, α-maltosyltrehalose]")
0
>>> experimental_value("OC[C@H]1O[C@H](O[C@H]2O[C@H](CO)[C@@H](O[C@H]3O[C@H](CO)[C@@H](O[C@H]4O[C@H](CO)[C@@H](O[C@H]5O[C@H](CO)[C@@H](O[C@H]6O[C@H](CO)[C@@H](O[C@H]7O[C@H](CO)[C@@H](O)[C@H](O)[C@H]7O)[C@H](O)[C@H]6O)[C@H](O)[C@H]5O)[C@H](O)[C@H]4O)[C@H](O)[C@H]3O)[C@H](O)[C@H]2O)[C@H](O)[C@@H](O)[C@@H]1O [P V, α-maltopentaosyltrehalose]")
1.0
>>> experimental_value("OC[C@H]1O[C@H](O[C@H]2O[C@H](CO)[C@@H](O[C@H]3O[C@H](CO)[C@@H](O)[C@H](O)[C@H]3O)[C@H](O)[C@H]2O)[C@H](O)[C@@H](O)[C@@H]1O [P I, α-glucosyltrehalose]")
0
>>> experimental_value("OC[C@H]1O[C@H](O[C@H]2O[C@H](CO)[C@@H](O[C@H]3O[C@H](CO)[C@@H](O[C@H]4O[C@H](CO)[C@@H](O[C@H]5O[C@H](CO)[C@@H](O)[C@H](O)[C@H]5O)[C@H](O)[C@H]4O)[C@H](O)[C@H]3O)[C@H](O)[C@H]2O)[C@H](O)[C@@H](O)[C@@H]1O [P III, α-maltotriosyltrehalose]")
1.2
